Molecular target: HIV-1 recombinant protease (Human immunodeficiency virus type 1 group M subtype B, UniProt P04585)
Experiment: biochemical
pIC50: −log10 of the molar value.
# pIC50 values compiled below
readout_kind: pIC50

compound="CC(=O)N[C@@H](Cc1c[nH]c2ccccc12)C(=O)N[C@H](C(=O)N[C@@H](Cc1ccccc1)[C@H](O)[C@@H](O)[C@@H]1CCCN1C(=O)[C@@H](NC(=O)[C@H](Cc1c[nH]c2ccccc12)NC(C)=O)C(C)C)C(C)C [(22), NH-Ac-Trp-Val-Phe-[φ]-Pro-Val-Trp-NH-Ac]" meas_value=10.22
compound="CCC(C)C(NC(=O)C(NC(C)=O)C(C)C)C(=O)N1CCC[C@H]1[C@H](O)[C@@H](O)[C@H](Cc1ccccc1)NC(=O)C(CC(N)=O)NC(=O)C(CC(C)C)NC(=O)C(CO)NC(C)=O (some centres unmarked)" meas_value=9.21
compound="Cc1cccc(C)c1OCC(=O)N[C@@H](Cc1ccccc1)[C@H](O)[C@@H](O)[C@@H]1CCCN1C(=O)COc1ccccc1 [(25), DmPoa-Phe-[φ]-Pro-Poa]" meas_value=7.07
compound="Cc1cccc(C)c1OCC(=O)N[C@@H](Cc1ccccc1)[C@H](O)[C@@H](O)[C@@H]1CCCN1C(=O)COc1c(C)cccc1C [(23), DmPoa-Phe-[φ]-Pro-DmPoa]" meas_value=8.02
compound="CC(=O)NC(Cc1c[nH]c2ccccc12)C(=O)NC(C(=O)N1CCC[C@H]1[C@H](O)[C@@H](O)[C@H](Cc1ccccc1)NC(=O)COc1c(C)cccc1C)C(C)C (stereo partly drawn) [(24), DmPoa-Phe-[φ]-Pro-Val-Trp-NH-Ac]" meas_value=7.12

Hello, the source for this data is patent US7691818B2, in case you need it.
